Tested on: THP-1 viability, CellTiter-Glo luminescence, 72 h
Test: THP-1 cell cytotoxicity, dose response, cytotoxicity control for Salmonella PhoP regulon inhibitors, S. typhimurium screen hits (AID 2253)
pEC50: −log10 of the molar value.
// reported pEC50 for each item listed

molecule_smiles | pEC50
C/C(CC(=O)Nc1ccc(Cl)c(C(F)(F)F)c1)=N\NC(=O)c1cccc(O)c1 | 4.62
CC(C)NC1=C(Cl)C(=O)c2ccccc2C1=O | 4.72
CCOc1cc(/C=N/N=C(N)N)ccc1OCc1ccc(Cl)cc1 | 5.28
O=C(CSc1nc2ccccc2s1)N/N=C/c1cc([N+](=O)[O-])ccc1O | 4.58
Cc1cc(C)c2nc(NNC(=O)c3ccc(S(=O)(=O)N4CCc5ccccc5C4)cc3)sc2c1 | 5.77
COc1ccc(Nc2nc(-c3c[nH]c4ccccc34)cs2)cc1 | 4.81
COc1ccc(/C=C/c2nc3ccccc3n2Cc2ccccc2OC)cc1 | 4.88
O=C(NNc1c2ccccc2nc2ccccc12)c1ccccc1O | 4.55
Cc1cccc(Nc2nc(NCc3ccco3)c3ccccc3n2)c1 | 5.28
CCN1/C(=C/C(C)=C/c2sc3ccccc3[n+]2CC)Sc2ccccc21 | 4.87

----------
Tested on: THP-1 viability, CellTiter-Glo luminescence, 72 h
Experiment: THP-1 cell cytotoxicity, dose response, cytotoxicity control for Salmonella PhoP regulon inhibitors, S. typhimurium screen hits (AID 2253)
Listed here are compounds together with their documented EC50.

compound | EC50
COc1ccc(NC(C)C(=O)Nc2ccc(C(C)(C)C)cc2)cc1Cl (centres undefined) | 40.7 µM
N=c1n(CCO)c2ccccc2n1Cc1ccc(Cl)cc1 | 41.1 µM
CCc1nn2cc(C(=O)c3cc(Cl)ccc3O)cnc2c1-c1ccc(F)cc1 | 38.3 µM
Cc1cc(C)cc(OC(=O)CS(=O)c2ccc(C(F)(F)F)cc2[N+](=O)[O-])c1 (centres undefined) | 5.98 µM
Cc1ccc(C(C)C)c(OCC(=O)N2CCN(Cc3nc4cc([N+](=O)[O-])ccc4n3C)CC2)c1 | 25.9 µM
O=C(C[n+]1cccc(CNC(=O)c2ccc(OC(F)F)cc2)c1)Nc1ccc(SC(F)F)cc1 | 11.7 µM
CCN(CC(=O)NC(C)(C)C)C(=O)COc1c(Cl)cc(Cl)c2ccc(C)nc12 | 37.3 µM
CCn1cc(C(=O)O)c(=O)c2cc(F)c(N3CCN(C(=S)NC(=O)c4c(OC)cccc4OC)CC3)cc21 | 43.5 µM
O=C(N/N=C/c1cc(Cl)ccc1O)c1ccncc1 | 5.12 µM

----------
Tested on: THP-1 viability, CellTiter-Glo luminescence, 72 h
Assay: THP-1 cell cytotoxicity, dose response, cytotoxicity control for Salmonella PhoP regulon inhibitors, S. typhimurium screen hits (AID 2253)
pEC50: −log10 of the molar value.

compound | system | pEC50
CC1N(C)c2cc(NC(=O)c3ccco3)ccc2C1(C)C (configuration not stated) | THP-1 viability, CellTiter-Glo luminescence, 72 h | 5.12
C=C1c2c(Cl)ccc(O)c2C(O)=C2C(=O)[C@]3(O)C(O)=C(C(N)=O)C(=O)[C@@H](N(C)C)[C@@H]3[C@@H](O)C12 (some centres not stated) | THP-1 viability, CellTiter-Glo luminescence, 72 h | 4.89
Oc1c(C(Nc2cccc(C(F)(F)F)c2)c2cccnc2)ccc2cccnc12 (configuration not stated) | THP-1 viability, CellTiter-Glo luminescence, 72 h | 5.12
C=CCNc1ncnc2c1[nH]c1ccc(Cl)cc12 | THP-1 viability, CellTiter-Glo luminescence, 72 h | 4.91
CCOc1cc(/C=C2/NC(=O)N(CC(=O)Nc3cccc(C)c3)C2=O)ccc1OC | THP-1 viability, CellTiter-Glo luminescence, 72 h | 4.51
CC1=C(C(=O)OCC2CCCO2)C(c2cccc(C(F)(F)F)c2)C2=C(CC(c3ccco3)CC2=O)N1 (configuration not stated) | THP-1 viability, CellTiter-Glo luminescence, 72 h | 4.37
Cc1ccc(C(C[N+](=O)[O-])c2c(C)cc3ccccn23)cc1 (configuration not stated) | THP-1 viability, CellTiter-Glo luminescence, 72 h | 4.81

----------
Test system: THP-1 viability, CellTiter-Glo luminescence, 72 h
Assay: THP-1 cell cytotoxicity, dose response, cytotoxicity control for Salmonella PhoP regulon inhibitors, S. typhimurium screen hits (AID 2253)
measure_name: EC50

compound | system | measure_name | result
CCCCOc1ccc(S(=O)(=O)NNC(=O)C2Cc3c(ccc4ccccc34)O2)cc1 (stereo unspecified) | THP-1 viability, CellTiter-Glo luminescence, 72 h | EC50 | 42.6 µM
Cc1ccc(C)c(/C=C/C(=O)c2ccccc(=O)c2O)c1 | THP-1 viability, CellTiter-Glo luminescence, 72 h | EC50 | 9.58 µM
CCc1ccc(S(=O)(=O)/N=C2/C=C(Sc3ncn[nH]3)C(=O)c3ccccc32)cc1 | THP-1 viability, CellTiter-Glo luminescence, 72 h | EC50 | 4.28 µM
CC(=O)Nc1cc(N=Cc2ccc(O)cc2O)c(Cl)cc1Cl | THP-1 viability, CellTiter-Glo luminescence, 72 h | EC50 | 45.3 µM
CCCCCOc1ccc(Br)cc1CSC(=N)N | THP-1 viability, CellTiter-Glo luminescence, 72 h | EC50 | 1.86 µM
CCCCCCCCCCOC(=O)Cn1c(COc2ccccc2OC)[n+](C)c2ccccc21 | THP-1 viability, CellTiter-Glo luminescence, 72 h | EC50 | 2.2 µM
CC(=O)Oc1cc2cccc(OC(C)=O)c(=O)c2c(OC(C)=O)c1OC(C)=O | THP-1 viability, CellTiter-Glo luminescence, 72 h | EC50 | 14.6 µM
Cc1ccc(NC(=S)NC(NC(=O)c2ccco2)C(Cl)(Cl)Cl)cc1 (stereo unspecified) | THP-1 viability, CellTiter-Glo luminescence, 72 h | EC50 | 19.6 µM
NC1=NC2(CCCCC2)N=C(Nc2ccc(Br)cc2)N1 | THP-1 viability, CellTiter-Glo luminescence, 72 h | EC50 | 2.8 µM
OC(CNCCc1ccccc1)COc1ccc(OCC(O)CNCCc2ccccc2)cc1 (stereo unspecified) | THP-1 viability, CellTiter-Glo luminescence, 72 h | EC50 | 6 µM
S=C(NCc1ccncc1)Nc1ccc(Cl)c(Cl)c1 | THP-1 viability, CellTiter-Glo luminescence, 72 h | EC50 | 46.2 µM
O=C1C(=O)c2ccccc2-c2ccccc21 | THP-1 viability, CellTiter-Glo luminescence, 72 h | EC50 | 8.03 µM
C=CCN(C(=O)c1cccc(S(=O)(=O)N2CCN(C)CC2)c1)c1nc(-c2ccccc2)cs1 | THP-1 viability, CellTiter-Glo luminescence, 72 h | EC50 | 49.4 µM
Oc1cccc(Nc2c3ccccc3nc3ccccc23)c1 | THP-1 viability, CellTiter-Glo luminescence, 72 h | EC50 | 12 µM
Cc1cccc(NC(=S)NC(NC(=O)c2ccco2)C(Cl)(Cl)Cl)c1 (stereo unspecified) | THP-1 viability, CellTiter-Glo luminescence, 72 h | EC50 | 21.7 µM
CCCc1nc2c(=O)n(C)c(=O)nc-2n(C)n1 | THP-1 viability, CellTiter-Glo luminescence, 72 h | EC50 | 2.36 µM
O=C(N/N=C/c1cc([N+](=O)[O-])ccc1O)c1ccncc1 | THP-1 viability, CellTiter-Glo luminescence, 72 h | EC50 | 15.1 µM
CCCc1cc(-c2nc(N)ncc2-c2ccc3c(c2)OCCCO3)c(O)cc1OC | THP-1 viability, CellTiter-Glo luminescence, 72 h | EC50 | 19.9 µM
CCCCCCCCCCCCCCCC[N+](C)(C)CC | THP-1 viability, CellTiter-Glo luminescence, 72 h | EC50 | 0.7 µM
Oc1ccccc1Nc1nc(NCc2ccco2)c2ccccc2n1 | THP-1 viability, CellTiter-Glo luminescence, 72 h | EC50 | 13.2 µM
COC(=O)c1c(NC(=O)c2ccc([N+](=O)[O-])o2)sc2c1CCN(C(C)C)C2 | THP-1 viability, CellTiter-Glo luminescence, 72 h | EC50 | 1.2 µM
Oc1ccc(CN2CCN(Cc3ccccc3)CC2)c2cccnc12 | THP-1 viability, CellTiter-Glo luminescence, 72 h | EC50 | 12.9 µM
Oc1ccc(/C=N/Nc2ncc(Br)cn2)c(O)c1 | THP-1 viability, CellTiter-Glo luminescence, 72 h | EC50 | 3.1 µM
COc1cnc(-c2ccccn2)[nH]c1=O | THP-1 viability, CellTiter-Glo luminescence, 72 h | EC50 | 25.6 µM
O=C(NCCCc1ccccc1)Nc1cccc(Cl)c1 | THP-1 viability, CellTiter-Glo luminescence, 72 h | EC50 | 37 µM
Nc1cc(Cl)c2nonc2c1[N+](=O)[O-] | THP-1 viability, CellTiter-Glo luminescence, 72 h | EC50 | 2.24 µM
CNc1nc(NCc2ccccc2)c2ccccc2n1 | THP-1 viability, CellTiter-Glo luminescence, 72 h | EC50 | 10 µM
Cc1nc2c(=O)n(C)c(=O)nc-2n(C)n1 | THP-1 viability, CellTiter-Glo luminescence, 72 h | EC50 | 1.22 µM
Cc1cc(N/N=C/c2cccc(Cl)c2)nc(NCc2ccccc2)n1 | THP-1 viability, CellTiter-Glo luminescence, 72 h | EC50 | 23.5 µM
CCn1c2ccccc2c2cc(N)ccc21 | THP-1 viability, CellTiter-Glo luminescence, 72 h | EC50 | 16.1 µM
COc1cccc(Nc2nc(NCC3CCCO3)c3ccccc3n2)c1 (stereo unspecified) | THP-1 viability, CellTiter-Glo luminescence, 72 h | EC50 | 2.88 µM
O=[N+]([O-])c1cc(F)c2cccnc2c1O | THP-1 viability, CellTiter-Glo luminescence, 72 h | EC50 | 30.5 µM
CCOC(=O)Cn1nnnc1C(C(C)C)N(Cc1cccs1)Cc1cc2cc(C)ccc2[nH]c1=O (stereo unspecified) | THP-1 viability, CellTiter-Glo luminescence, 72 h | EC50 | 10.5 µM
Cc1ccc([N+](=O)[O-])cc1-c1ccc(/C=C(\C#N)c2[nH]nc(N)c2C#N)o1 | THP-1 viability, CellTiter-Glo luminescence, 72 h | EC50 | 5.93 µM
COc1ccc2ccccc2c1/C=N/NC(=O)c1sc(N)c(C#N)c1C | THP-1 viability, CellTiter-Glo luminescence, 72 h | EC50 | 30.1 µM
CCOC(=O)N1CCN(S(=O)(=O)c2ccc(C(=O)NNc3nc4c(C)cc(C)cc4s3)cc2)CC1 | THP-1 viability, CellTiter-Glo luminescence, 72 h | EC50 | 3.28 µM
